Test system: Myzus persicae
protocolDetails: Myzus persicae spray test (MYZUPE)
Format: in vivo
testParameters: foliar, 120 h, 500 g/ha, Chinese cabbage leaf discs, after 5 days, read-out: efficacy
propertyName: pest or weed control at 500 g/ha

compound	pest or weed control at 500 g/ha
CCNC(=O)Nc1ccc(S(=O)(=O)CC)c(-c2nc3cc(C(F)(F)F)ncc3n2C)n1 [Example I-1]	90%
CCS(=O)(=O)c1ccc(NC(=O)NCCC#N)nc1-c1nc2cc(C(F)(F)F)ncc2n1C [Example I-2]	90%
CCS(=O)(=O)c1ccc(NC(=O)NCCOC)nc1-c1nc2cc(C(F)(F)F)ncc2n1C [Example I-5]	100%

Turning to the following compound.
Ask: Find the recorded pest or weed control at 500 g/ha belonging to CCS(=O)(=O)c1ccc(NC(=O)NC)nc1-c1nc2cc(C(F)(F)F)ncc2n1C [Example I-4] and report it.
Reply: 90%

----------
Test system: Myzus persicae
protocolDetails: Myzus persicae oral test
Type: in vivo
testParameters: 120 h, 4 ppm, after 5 days, read-out: efficacy
propertyName: pest or weed control at 4 ppm (%)
Answers are plain numbers, in %.

compound	endpointResult
CCS(=O)(=O)c1ccc(NC(=O)N(C)C)nc1-c1nc2cc(C(F)(F)F)ncc2n1C [Example I-15]	100

// batch mode: one pest or weed control at 4 ppm value per listed entry
1. CCS(=O)(=O)c1ccc(NC(=O)NCC[S+](C)[O-])nc1-c1nc2cc(C(F)(F)F)ncc2n1C (centres unmarked) [Example I-3]
2. CCS(=O)(=O)c1ccc(NC(=O)NCCSC)nc1-c1nc2cc(C(F)(F)F)ncc2n1C [Example I-6]
3. CCS(=O)(=O)c1ccc(NC(=O)n2cc(Br)cn2)nc1-c1nc2cc(C(F)(F)F)ncc2n1C [Example I-13]
4. CCS(=O)(=O)c1ccc(NC(=O)NCCC#N)nc1-c1nc2cc(C(F)(F)F)ncc2n1C [Example I-2]

Reply:
1: 100; 2: 100; 3: 90; 4: 100

----------
protocolDetails: log P by HPLC on reversed-phase column (EEC Directive 79/831 Annex V.A8)
Assay type: physicochemical
testParameters: reversed-phase C18 HPLC column, C 18 reversed phase, 55° C., pH 7.8, read-out: log P (neutral)
propertyName: chromatographic logP
One number for each entry.

Ask: Find the recorded chromatographic logP belonging to `CCS(=O)(=O)c1ccc(NC(=O)NC)nc1-c1nc2cc(C(F)(F)F)ncc2n1C` and report it.
Reply: 1.83

----------
Test system: Myzus persicae
protocolDetails: Myzus persicae oral test
Type: in vivo
testParameters: 120 h, 4 ppm, after 5 days, read-out: efficacy
Method: Solvent: 100 parts by weight of acetone To produce a suitable active compound preparation, 1 part by weight of active compound is dissolved with the stated parts by weight of solvent and made up to the desired concentration with water. 50 μl of the active compound preparation are transferred into microtitre plates and made up to a final volume of 200 μl with 150 μl of IPL41 insect medium (33%+15% sugar). […] After 5 days, the efficacy in % is determined. […]
Provide the recorded pest or weed control at 4 ppm for the entries that follow.
Value and unit, in that order.

Illustrative cases are given below, each with its answer.
molecule	pest or weed control at 4 ppm
CCS(=O)(=O)c1ccc(NC(=O)NCCOC)nc1-c1nc2cc(C(F)(F)F)ncc2n1C [Example I-5]	100%
CCS(=O)(=O)c1ccc(NC(=O)N2CCCC2)nc1-c1nc2cc(C(F)(F)F)ncc2n1C [Example I-14]	100%

Turning to the following molecule.
Ask: Find the recorded pest or weed control at 4 ppm belonging to CCS(=O)(=O)c1ccc(NC(=O)NCCS(C)(=O)=O)nc1-c1nc2cc(C(F)(F)F)ncc2n1C [Example I-8] and report it.
Reply: 90%
